Parameter IC50: see the listing below.
molecular target: D(2) dopamine receptor (Mus musculus, UniProt P61168); test: In vitro binding affinity towards dopamine receptor D2
Sequence (P61168 whole entry): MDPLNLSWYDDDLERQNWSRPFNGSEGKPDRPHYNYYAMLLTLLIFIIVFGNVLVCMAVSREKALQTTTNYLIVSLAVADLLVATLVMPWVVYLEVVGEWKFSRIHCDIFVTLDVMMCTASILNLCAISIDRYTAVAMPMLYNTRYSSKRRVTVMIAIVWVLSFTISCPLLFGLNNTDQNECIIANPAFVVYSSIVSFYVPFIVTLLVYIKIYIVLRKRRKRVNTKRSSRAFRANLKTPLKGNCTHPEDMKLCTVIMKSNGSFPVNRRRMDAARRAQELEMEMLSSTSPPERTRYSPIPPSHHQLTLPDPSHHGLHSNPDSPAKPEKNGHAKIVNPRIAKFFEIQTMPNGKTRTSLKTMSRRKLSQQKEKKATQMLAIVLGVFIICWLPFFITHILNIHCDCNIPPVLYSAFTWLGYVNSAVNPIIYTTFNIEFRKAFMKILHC

COMPOUND: COc1ccc(OCC2CCN(CC3CC3)CC2)cc1.Cl.O
TESTED_ON: D(2) dopamine receptor (Mus musculus, UniProt P61168)
IC50: > 10 µM
//
COMPOUND: Fc1ccc(COCC2CCN(CCCc3ccccc3)CC2)cc1
TESTED_ON: D(2) dopamine receptor (Mus musculus, UniProt P61168)
IC50: > 10 µM
//
COMPOUND: OC(CCCN1CCN(c2ncc(F)cn2)CC1)c1ccc(F)cc1 (stereo not given) [BMY-14802]
TESTED_ON: D(2) dopamine receptor (Mus musculus, UniProt P61168)
IC50: 2.43 µM
//
COMPOUND: Cl.Fc1ccc(COCC2CCN(CC3CCCCC3)CC2)cc1
TESTED_ON: D(2) dopamine receptor (Mus musculus, UniProt P61168)
IC50: 3.35 µM
//
COMPOUND: Cl.c1ccc(COCC2CCN(Cc3ccccc3)CC2)cc1
TESTED_ON: D(2) dopamine receptor (Mus musculus, UniProt P61168)
IC50: > 10 µM
//
COMPOUND: OC(Cc1ccc(F)cc1)C1CCN(CCCCc2ccccc2)CC1 (stereo not given)
TESTED_ON: D(2) dopamine receptor (Mus musculus, UniProt P61168)
IC50: 0.9 µM
//
COMPOUND: Nc1ccc(C(=O)CC2CCN(CC3CC3)CC2)cc1.O
TESTED_ON: D(2) dopamine receptor (Mus musculus, UniProt P61168)
IC50: > 10 µM
//
COMPOUND: CC(C)(C)c1ccc(COCCC2CCN(Cc3ccccc3)CC2)cc1.Cl
TESTED_ON: D(2) dopamine receptor (Mus musculus, UniProt P61168)
IC50: 6.75 µM
//
COMPOUND: CSc1ccc(OCC2CCN(CC3CC3)CC2)cc1.Cl
TESTED_ON: D(2) dopamine receptor (Mus musculus, UniProt P61168)
IC50: 1.98 µM
//
COMPOUND: Cl.c1ccc(CCCCCOCC2CCN(Cc3ccccc3)CC2)cc1
TESTED_ON: D(2) dopamine receptor (Mus musculus, UniProt P61168)
IC50: 1.85 µM
//
COMPOUND: Cl.c1ccc(CCCCOCC2CCN(Cc3ccccc3)CC2)cc1
TESTED_ON: D(2) dopamine receptor (Mus musculus, UniProt P61168)
IC50: 4.34 µM
//
COMPOUND: c1cnc(OCC2CCN(CC3CC3)CC2)nc1
TESTED_ON: D(2) dopamine receptor (Mus musculus, UniProt P61168)
IC50: 4.45 µM
//
COMPOUND: N#Cc1ccc(C(=O)CC2CCN(CC3CC3)CC2)cc1.O=C(O)/C=C/C(=O)O
TESTED_ON: D(2) dopamine receptor (Mus musculus, UniProt P61168)
IC50: > 10 µM
//
COMPOUND: O.O=C(Cc1ccc(F)cc1)C1CCN(Cc2ccncc2)CC1.O=C(O)/C=C\C(=O)O
TESTED_ON: D(2) dopamine receptor (Mus musculus, UniProt P61168)
IC50: > 10 µM
//
COMPOUND: Cl.Clc1ccc(OCC2CCN(CC3CC3)CC2)cc1
TESTED_ON: D(2) dopamine receptor (Mus musculus, UniProt P61168)
IC50: > 10 µM
//
COMPOUND: CCNc1ccc(OCC2CCN(CC3CC3)CC2)cc1.Cl.O
TESTED_ON: D(2) dopamine receptor (Mus musculus, UniProt P61168)
IC50: > 10 µM
//
COMPOUND: O.c1ccc(-c2ccc(OCC3CCN(CC4CC4)CC3)cc2)cc1
TESTED_ON: D(2) dopamine receptor (Mus musculus, UniProt P61168)
IC50: > 10 µM
//
COMPOUND: CS(=O)(=O)c1ccc(C(=O)CC2CCN(Cc3ccccc3)CC2)cc1
TESTED_ON: D(2) dopamine receptor (Mus musculus, UniProt P61168)
IC50: > 10 µM
//
COMPOUND: Cl.OC(CC1CCN(Cc2ccccc2)CC1)c1ccc(C(F)(F)F)cc1 (stereo not given)
TESTED_ON: D(2) dopamine receptor (Mus musculus, UniProt P61168)
IC50: > 10 µM
//
COMPOUND: c1ccc(Oc2ccc(OCC3CCN(CC4CC4)CC3)cc2)cc1
TESTED_ON: D(2) dopamine receptor (Mus musculus, UniProt P61168)
IC50: > 10 µM
